# Test system: MAb 4134-40-1
# assay-name: competitive ELISA, triasulfurone and analogs with MAb 4134-40-1 (Table 1)
# Type: binding, mouse (Balb/c)
# particulars: (triasulfurone conc. for 50% inhibition/analog conc. for 50% inhibition) × 100
measurement-kind: Cross-reactivity

# count of solved cases: 6
structure-string	Cross-reactivity
COc1nc(C)nc(NC(=O)NS(=O)(=O)c2ccccc2Cl)n1	< 0.7%
CCCOC(=O)NS(=O)(=O)c1ccccc1OCCCl	342.9%
COc1nc(C)nc(NC(=O)NS(=O)(=O)c2cc(O)ccc2OCCCl)n1	1.3%
COc1nc(C)nc(NC(=O)NS(=O)(=O)c2ccccc2SCCF)n1	24.0%
NS(=O)(=O)c1ccccc1OCCO	< 0.7%
COC(=O)c1ccccc1CS(=O)(=O)NC(=O)Nc1nc(OC)cc(OC)n1	< 0.7%

Lab note: COc1cc(OC)nc(NC(=O)NS(=O)(=O)c2ncccc2C(=O)N(C)C)n1 gave Cross-reactivity of < 0.7%

Notebook: CCS(=O)(=O)c1cccnc1S(=O)(=O)NC(=O)Nc1nc(OC)cc(OC)n1 , Cross-reactivity read as < 0.7%

The recorded Cross-reactivity for NC(=O)NS(=O)(=O)c1ccccc1OCCCl is 120.0%

Documented Cross-reactivity of NS(=O)(=O)c1ccccc1OCCCl : < 0.7%

Notebook: CCN(CC)C(=O)NS(=O)(=O)c1ccccc1OCCCl , Cross-reactivity read as 800.0%

====

# System: MAb 4134-40-1
# assay-name: competitive ELISA, triasulfurone and analogs with MAb 4134-40-1 (Table 1)
# Type: binding, mouse (Balb/c)
# particulars: (triasulfurone conc. for 50% inhibition/analog conc. for 50% inhibition) × 100
Recorded Cross-reactivity by entry

# example entries with known answers
compound	Cross-reactivity
COc1nc(C)nc(NC(=O)NS(=O)(=O)c2ccccc2OCCCl)n1 [triasulfurone]	100.0%
COC(=O)c1ccccc1S(=O)(=O)NC(=O)Nc1nc(OC(F)F)cc(OC(F)F)n1 [I, primisulfurone]	< 0.7%
COc1nc(C)nc(NC(N)=O)n1 [F]	< 0.7%
NS(=O)(=O)c1cc(O)ccc1OCCCl [E]	< 0.7%
COc1nc(C)nc(NC(=O)NS(=O)(=O)c2ccc(O)cc2OCCCl)n1 [B]	< 0.7%
COC(=O)c1ccccc1S(=O)(=O)NC(=O)Nc1nc(C)cc(C)n1 [J, sulfometurone-methyl]	< 0.7%

The value of Cross-reactivity measured for the compound COC(=O)c1ccccc1S(=O)(=O)NC(=O)Nc1nc(C)nc(OC)n1 [O, methsulfurone-methyl] turned out to be < 0.7%

// Cross-reactivity lookup, compound = COC(=O)c1ccccc1S(=O)(=O)NC(=O)N(C)c1nc(C)nc(OC)n1 [K, tribenurone-methyl] , result: < 0.7%

Record summary for COC(=O)c1sccc1S(=O)(=O)NC(=O)Nc1nc(C)nc(OC)n1 [L, thiameturone-methyl] : reported Cross-reactivity = < 0.7%
